assayRemarks: Cmax in Sprague-Dawley rat at 1 mg/kg, po administered through cassette dosing by LC/MS/MS analysis
Assay type: ADME, organism-based
Parameters: dose 1 mg/kg, route oral
appliedConditions: in vivo
endpoint: Cmax (ng/mL)
The figure you give is taken to be in ng/mL; do not add the unit.

{"columns": ["molecule", "Cmax, ng/mL"],
 "data": [
  ["Cc1c2cc(-n3ccc(OCc4csc(C(F)(F)F)c4)cc3=O)ccc2nn1C1CC1", 426]
]}

Fill in Cmax for record Cc1c2cc(-n3ccc(OCc4ccc(Cl)cc4)cc3=O)ccc2nn1C1CC1
291

====

assayRemarks: Total plasma clearance in Sprague-Dawley rat at 0.1 mg/kg, iv administered through cassette dosing by LC/MS/MS analysis
Assay type: ADME, organism-based
Recorded clearance values for a group of compounds are listed next.
The figure you give is taken to be in mL/min/kg; do not add the unit.

Fill in clearance for record Cc1c2cc(-n3ccc(OCc4ccc(Cl)cc4)cc3=O)ccc2nn1C1CC1
3.45

Fill in clearance for record Cc1c2cc(-n3ccc(OCc4csc(C(F)(F)F)c4)cc3=O)ccc2nn1C1CC1
4.93

====

targetDesc: Melanin-concentrating hormone receptor 1 (Rattus norvegicus, UniProt P97639)
Sequence (P97639 whole entry): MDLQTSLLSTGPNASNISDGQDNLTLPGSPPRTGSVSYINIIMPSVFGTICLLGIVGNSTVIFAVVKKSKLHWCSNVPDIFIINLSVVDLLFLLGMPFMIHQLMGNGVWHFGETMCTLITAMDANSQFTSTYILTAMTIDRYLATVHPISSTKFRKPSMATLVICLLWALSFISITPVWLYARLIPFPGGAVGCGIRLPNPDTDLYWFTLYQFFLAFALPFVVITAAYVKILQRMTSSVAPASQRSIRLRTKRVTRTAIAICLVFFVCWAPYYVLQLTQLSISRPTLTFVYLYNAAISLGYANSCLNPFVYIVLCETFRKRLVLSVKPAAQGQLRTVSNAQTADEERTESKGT
assayRemarks: Displacement of [125I]-MCH(4 to 19) from rat MCHR1 expressed in CHO cell membranes after 1 hr by liquid scintillation counting
endpoint: IC50 (nM)
The figure you give is taken to be in nM; do not add the unit.

Record excerpt, results attached:
{"columns": ["molecule", "IC50 / nM"],
 "data": [
  ["Cc1c2cc(-n3ccc(OCc4ccc(C(F)(F)F)s4)cc3=O)ccc2nn1C", 90],
  ["Cc1c2cc(-n3ccc(OCc4csc(C(F)(F)F)n4)cc3=O)ccc2nn1C", 130],
  ["Cc1c2cc(-n3ccc(OCc4ccc(Cl)cc4)cc3=O)ccc2nn1C1CC1", 23],
  ["Cc1c2cc(-n3ccc(OCc4nc(C(F)(F)F)cs4)cc3=O)ccc2nn1C", 76],
  ["Cc1c2cc(-n3ccc(OCc4ccc(F)cc4)cc3=O)ccc2nn1C1CC1", 35]
]}

Fill in IC50 for record Cc1c2cc(-n3ccc(OCc4csc(C(F)(F)F)c4)cc3=O)ccc2nn1C1CC1
26

Fill in IC50 for record CCCn1nc2ccc(-n3ccc(OCc4ccc(Cl)cc4)cc3=O)cc2c1C
130

====

assayRemarks: Oral bioavailability in Sprague-Dawley rat plasma at 1 mg/kg administered through cassette dosing by LC/MS/MS analysis
Format: ADME, organism-based
endpoint: bioavailability (%)
The figure you give is taken to be in %; do not add the unit.

{"columns": ["molecule", "endpoint", "measuredResult"],
 "data": [
  ["Cc1c2cc(-n3ccc(OCc4ccc(Cl)cc4)cc3=O)ccc2nn1C1CC1", "bioavailability", 37]
]}

Turning to the following compound.
Fill in bioavailability for record Cc1c2cc(-n3ccc(OCc4csc(C(F)(F)F)c4)cc3=O)ccc2nn1C1CC1
78

====

assayRemarks: Fraction unbound in DIO-F344/Jcl rat plasma at 10 mg/kg, po
Format: ADME, organism-based
endpoint: fraction unbound
Number, no unit, nothing else.

Fill in fraction unbound for record Cc1c2cc(-n3ccc(OCc4csc(C(F)(F)F)c4)cc3=O)ccc2nn1C1CC1
0.022

====

assayRemarks: Ratio of drug level in brain to plasma in po dosed DIO-F344/Jcl rat
Format: ADME, organism-based
appliedConditions: read-out: BPR
endpoint: Kp
Number, no unit, nothing else.

Fill in Kp for record Cc1c2cc(-n3ccc(OCc4csc(C(F)(F)F)c4)cc3=O)ccc2nn1C1CC1
0.66
